These measurements were taken from patent US20230081720A1.

Recorded kon by entry
Molecular target: soluble cyno CD74 (cyno)
Sequence (P04233 other isoform, or with tags, fused parts or gaps): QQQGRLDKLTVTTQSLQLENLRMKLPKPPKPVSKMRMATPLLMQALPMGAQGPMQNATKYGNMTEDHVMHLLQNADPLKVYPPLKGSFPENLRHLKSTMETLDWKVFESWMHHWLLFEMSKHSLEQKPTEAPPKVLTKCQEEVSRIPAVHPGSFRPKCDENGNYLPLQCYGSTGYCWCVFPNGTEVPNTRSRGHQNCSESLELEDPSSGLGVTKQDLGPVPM
Assay: SPR, Biacore 8K; IgG captured by anti-IgG Fc, soluble CD74 as analyte; 1:1 model, apparent kinetics
Measure Name: kon (M⁻¹ s⁻¹)

Binder	Readout Units	Observed Value
Hcmil x LCmil_NQ (antibody, V domains shown, Tested as IgG; also called hLL1 heavy chain with hLL1 (NQ) light chain) VH: QVQLQQSGSELKKPGASVKVSCKASGYTFTNYGVNWIKQAPGQGLQWMGWINPNTGEPTFDDDFKGRFAFSLDTSVSTAYLQISSLKADDTAVYFCSRSRGKNEAWFAYWGQGTLVTVSS VL: DIQLTQSPLSLPVTLGQPASISCRSSQSLVHRNQNTYLHWFQQRPGQSPRLLIYTVSNRFSGVPDRFSGSGSGTDFTLKISRVEAEDVGVYFCSQSSHVPPTFGAGTRLEIK	M⁻¹ s⁻¹	30000
Mil_HCx hzVk1b (antibody, V domains shown, Tested as IgG; also called hLL1 heavy chain with hzLL1-Vk1b light chain) VH: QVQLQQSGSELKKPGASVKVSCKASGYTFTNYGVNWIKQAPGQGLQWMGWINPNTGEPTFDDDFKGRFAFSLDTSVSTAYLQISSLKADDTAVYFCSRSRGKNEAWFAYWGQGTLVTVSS VL: DVVMTQSPLSLPVTLGQPASISCRSSQSLVHRNGNTYLHWYQQRPGQSPRLLIYTVSNRFSGVPDRFSGSGSGTDFTLKISRVEAEDVGVYFCSQSSHVPPTFGQGTKLEIK	M⁻¹ s⁻¹	110000
milatuzumab (antibody, V domains shown, also called hLL1; WT IgG) VH: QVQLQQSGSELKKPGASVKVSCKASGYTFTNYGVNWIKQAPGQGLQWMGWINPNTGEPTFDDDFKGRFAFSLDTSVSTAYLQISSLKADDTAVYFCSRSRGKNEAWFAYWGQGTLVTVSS VL: DIQLTQSPLSLPVTLGQPASISCRSSQSLVHRNGNTYLHWFQQRPGQSPRLLIYTVSNRFSGVPDRFSGSGSGTDFTLKISRVEAEDVGVYFCSQSSHVPPTFGAGTRLEIK	M⁻¹ s⁻¹	56000
